# Test system: SK-OV-3 ovarian
# procedure.summary: NCI tumour cell line growth inhibition, 48 h
assay.metric: TGI

Answered cases to consult:
| molecule | target.system | TGI |
| --- | --- | --- |
| OCCOCCN1CCN(CCCN2c3ccccc3Sc3ccc(C(F)(F)F)cc32)CC1 | SK-OV-3 ovarian | 33.7 µM |
| O=C(O)CN(CC(=O)O)Cc1cc(C#Cc2ccc(C#Cc3ccccc3)cc2)cc(CN(CC(=O)O)CC(=O)O)n1 | SK-OV-3 ovarian | > 100 µM |
| COC(=O)C1=C(C)C(=O)[C@]23C(CCCC[C@H]12)C(=O)[C@H](C(=O)OC)C3C (stereo not given in full) | SK-OV-3 ovarian | > 100 µM |
| O=C(O)CCN(CCCCN(CCC(=O)O)CCC(=O)O)CCC(=O)O | SK-OV-3 ovarian | > 100 µM |
| CCCCCC(C/C=N/N(C)C)C(O)(C(F)(F)F)C(F)(F)F (stereo not given) | SK-OV-3 ovarian | > 100 µM |

Which TGI is listed for "O=[N+]([O-])C(=C(Nc1ccccc1)Nc1ccccc1)/C(Cl)=C(\Cl)[N+](=O)[O-]" ? > 100 µM

# get_value(readout='TGI', item= CS(=O)(=O)OC1CCC2(C#N)CCC1C2=O (stereo not given) ) > 100 µM

Fill in: TGI of "CCOC(=O)Nc1ccc2c(c1)/C(=N\NC(N)=S)c1ccccc1-2" is ___ 44.8 µM

Endpoint output: TGI of CC(Cc1ccccc1)Nc1ncnc2c1ncn2C1OC(CO)CC1O (stereo not given) . Value? 13.7 µM

Any idea what TGI was measured for "O=C(NCCCCNc1cccccc1=O)OCc1ccccc1" ? > 100 µM

###

The entries below are paired with their reported TGI.
# Test system: M14 melanoma
# procedure.summary: NCI tumour cell line growth inhibition, 48 h

Previously resolved entries follow.
| compound | TGI |
| --- | --- |
| COc1ccc2[nH]cc(-c3ccc(-c4c[nH]c5ccc(OC)cc45)s3)c2c1 | 18.4 µM |
| CN1CCN(C(=S)N(C(=O)c2ccc(Cl)cc2)c2ccccc2)CC1 | > 100 µM |
| O=C(c1ccccc1)c1ccccc1-c1ccccc1 | 13 µM |
| CN(O)C(=O)SCC(NC(=O)CCC(N)C(=O)O)C(=O)NCC(=O)O (centres undefined) | > 2000 µM |
| CCOC(=O)N1CCN(/[N+]([O-])=N/Oc2ccc([N+](=O)[O-])cc2[N+](=O)[O-])CC1 | 1.43 µM |
| COC(=O)C1CC2CCC1(O[Si](C(C)C)(C(C)C)C(C)C)C(O)C2 (centres undefined) | 32.7 µM |
| c1cncc(C2(c3cc4ccccc4[nH]3)COCO2)c1 (centres undefined) | > 100 µM |
| COc1ccc(OC)c(-c2nc3n(c2/C=C2/C(=O)Nc4ccccc42)CCS3)c1 | > 100 µM |
| COc1cccc(N2CCN(CC(=O)N3CCN(c4nnc(-c5ccc(Cl)cc5)c(-c5ccc(Cl)cc5)n4)CC3)CC2)c1 | > 100 µM |
| CCOC(=O)c1nnsc1NC(=O)Nc1ccc(Cc2ccc(NC(=O)Nc3snnc3C(=O)OCC)cc2)cc1 | > 100 µM |

What value of TGI has been recorded for this entry: "COc1ccc([C@H]2CC(=O)C[C@H](c3ccc(OC)cc3)C23C(=O)c2ccccc2C3=O)cc1" > 100 µM

Fill blank: measured TGI of the compound N=C(N)C1CN(CCCCCCCCCCN2CC(C(=N)N)C(=O)NC2=O)C(=O)NC1=O (centres undefined) is ____. > 10 µM

Query (compound): CC(=O)OCC1=C(C(=O)O)N2C(=O)C(NC(=O)CSc3ccncc3)C2SC1 (centres undefined) ; field requested: TGI > 100 µM

What value of measured TGI is listed for "Fc1ccc(C(OCCN2CCN(CCCCl)CC2)c2ccc(F)cc2)cc1" ? 39.5 µM

Param item = O=C1CC(O)CC(=O)C1=C(O)CCCCCCCCCCc1ccccc1 (centres undefined) ; retrieve measured TGI. > 100 µM
